- TEST_DETAILS: Solubility of AM-2-19-FB in D5W/DSG-PEG2000
- Type: physicochemical
- MEASUREMENT_PARAMETERS: aqueous with cosolvent or surfactant or cyclodextrin; in D5W/DSG-PEG2000 (1:3 molar ratio) without the acetate buffer
RECORDED_ENDPOINT: solubility

- CC1OC(OC2/C=C/C=C/C=C/C=C/C=C/C=C/C=C/[C@H](C)[C@@H](O)[C@@H](C)[C@H](C)OC(=O)C[C@H](O)C[C@H](O)CC[C@@H](O)[C@H](O)C[C@H](O)C[C@]3(O)C[C@H](O)[C@@H](C(=O)NC(CO)CO)C(C2)O3)C(O)C(N)C1O (stereo partly shown): ~100 µg/mL
